Target: T1, HER3-Fc fusion protein, extracellular domain (ECD) of HER3 (aa 21-643) fused to an Fc part (UniProt P21860 21-643)
T1 construct: range 21-643; not shown: Fc part
Test: ELISA, immobilized HER3-Fc, anti-His-HRP detection
Consider the following partition of reported EC50 into named classes: low band: < 4 nM; middle band: ≥ 4 nM and < 7 nM; high band: ≥ 7 nM

>  <binder>
Fv3-43-hetEHD2 eFab molecule 2 (C102W Fd; C14T,N39Q light chain) (Fab, V domains shown, Monovalent anti-HER3 Fab-like molecule; His-tag on the Fd chain) VH: QVQLQQSGPGLVKPSQTLSLTCAISGDSVSSNRAAWNWIRQSPSRGLEWLGRTYYRSKWYNDYAQSLKSRITINPDTPKNQFSLQLNSVTPEDTAVYYCARDGQLGLDALDIWGQGTMVTVSS VL: QAGLTQPPAVSVAPGQTASITCGRDNIGSRSVHWYQQKPGQAPVLVVYDDSDRPAGIPERFSGSNYENTATLTISRVEAGDEADYYCQVWGITSDHVVFGGGTKLTVLD

>  <class_label>
high band

$$$$
>  <binder>
Fv3-43-hetEHD2 eFab molecule 5 (C102A Fd; C14W,N39Q light chain) (Fab, V domains shown, Monovalent anti-HER3 Fab-like molecule; His-tag on the Fd chain) VH: QVQLQQSGPGLVKPSQTLSLTCAISGDSVSSNRAAWNWIRQSPSRGLEWLGRTYYRSKWYNDYAQSLKSRITINPDTPKNQFSLQLNSVTPEDTAVYYCARDGQLGLDALDIWGQGTMVTVSS VL: QAGLTQPPAVSVAPGQTASITCGRDNIGSRSVHWYQQKPGQAPVLVVYDDSDRPAGIPERFSGSNYENTATLTISRVEAGDEADYYCQVWGITSDHVVFGGGTKLTVLD

>  <class_label>
high band

$$$$
>  <binder>
Fv3-43-hetEHD2 eFab molecule 8 (C102T Fd; C14T,N39Q light chain) (Fab, V domains shown, Monovalent anti-HER3 Fab-like molecule; His-tag on the Fd chain) VH: QVQLQQSGPGLVKPSQTLSLTCAISGDSVSSNRAAWNWIRQSPSRGLEWLGRTYYRSKWYNDYAQSLKSRITINPDTPKNQFSLQLNSVTPEDTAVYYCARDGQLGLDALDIWGQGTMVTVSS VL: QAGLTQPPAVSVAPGQTASITCGRDNIGSRSVHWYQQKPGQAPVLVVYDDSDRPAGIPERFSGSNYENTATLTISRVEAGDEADYYCQVWGITSDHVVFGGGTKLTVLD

>  <class_label>
middle band

$$$$
>  <binder>
Fv3-43-hetEHD2 eFab molecule 4 (C102T Fd; C14N,N39Q light chain) (Fab, V domains shown, Monovalent anti-HER3 Fab-like molecule; His-tag on the Fd chain; also called C14N,N39Q:N39,C102T) VH: QVQLQQSGPGLVKPSQTLSLTCAISGDSVSSNRAAWNWIRQSPSRGLEWLGRTYYRSKWYNDYAQSLKSRITINPDTPKNQFSLQLNSVTPEDTAVYYCARDGQLGLDALDIWGQGTMVTVSS VL: QAGLTQPPAVSVAPGQTASITCGRDNIGSRSVHWYQQKPGQAPVLVVYDDSDRPAGIPERFSGSNYENTATLTISRVEAGDEADYYCQVWGITSDHVVFGGGTKLTVLD

>  <class_label>
low band

$$$$
>  <binder>
Fv3-43-hetEHD2 eFab molecule 1 (C102A Fd; C14A,N39Q light chain) (Fab, V domains shown, Monovalent anti-HER3 Fab-like molecule; His-tag on the Fd chain; also called C14A,N39Q:N39,C102A) VH: QVQLQQSGPGLVKPSQTLSLTCAISGDSVSSNRAAWNWIRQSPSRGLEWLGRTYYRSKWYNDYAQSLKSRITINPDTPKNQFSLQLNSVTPEDTAVYYCARDGQLGLDALDIWGQGTMVTVSS VL: QAGLTQPPAVSVAPGQTASITCGRDNIGSRSVHWYQQKPGQAPVLVVYDDSDRPAGIPERFSGSNYENTATLTISRVEAGDEADYYCQVWGITSDHVVFGGGTKLTVLD

>  <class_label>
high band

$$$$
>  <binder>
Fv3-43-hetEHD2 eFab molecule 9 (C102S Fd; C14S,N39Q light chain) (Fab, V domains shown, N-glycan only on the Fd EHD2-2 domain; also called originally used eFab (C14S,N39Q:N39,C102S)) VH: QVQLQQSGPGLVKPSQTLSLTCAISGDSVSSNRAAWNWIRQSPSRGLEWLGRTYYRSKWYNDYAQSLKSRITINPDTPKNQFSLQLNSVTPEDTAVYYCARDGQLGLDALDIWGQGTMVTVSS VL: QAGLTQPPAVSVAPGQTASITCGRDNIGSRSVHWYQQKPGQAPVLVVYDDSDRPAGIPERFSGSNYENTATLTISRVEAGDEADYYCQVWGITSDHVVFGGGTKLTVLD

>  <class_label>
low band

$$$$
>  <binder>
Fv3-43-hetEHD2 eFab molecule 3 (C102N Fd; C14A,N39Q light chain) (Fab, V domains shown, Monovalent anti-HER3 Fab-like molecule; His-tag on the Fd chain; also called C14A,N39Q:N39,C102N) VH: QVQLQQSGPGLVKPSQTLSLTCAISGDSVSSNRAAWNWIRQSPSRGLEWLGRTYYRSKWYNDYAQSLKSRITINPDTPKNQFSLQLNSVTPEDTAVYYCARDGQLGLDALDIWGQGTMVTVSS VL: QAGLTQPPAVSVAPGQTASITCGRDNIGSRSVHWYQQKPGQAPVLVVYDDSDRPAGIPERFSGSNYENTATLTISRVEAGDEADYYCQVWGITSDHVVFGGGTKLTVLD

>  <class_label>
middle band

$$$$
